System: Human rhinovirus sp.
Assay: Inhibition of recombinant N-terminal His-tagged HRV 3C protease expressed in Escherichia coli at 10 uM preincubated for 15 mins followed by LEVLFQGPSK substrate addition after 45 mins by reverse-phase HPLC analysis relative to control
READOUT: inhibition (%)

[
  {
    "CHEMICAL SMILES": "COc1cccc(NCCNC(=O)[C@@H]2OC(C)(C)O[C@H]2C(=O)Nc2nc3ccccc3s2)c1",
    "inhibition (%)": 62.2
  }
]

(A) COc1cccc(NCCNC(=O)[C@@H]2OC(C)(C)O[C@H]2C(=O)Nc2ccc3ccccc3c2)c1
(B) CC1(C)O[C@H](C(=O)Nc2nc3ccccc3s2)[C@@H](C(=O)N2CCN(Cc3ccccc3)CC2)O1
(C) CC1(C)O[C@@H](C(=O)Nc2nc3ccccc3s2)[C@H](C(=O)N2CCN(c3ccccc3C#N)CC2)O1
(D) CC1(C)O[C@H](C(=O)Nc2nc3ccccc3s2)[C@@H](C(=O)N2CCN(c3ccccn3)CC2)O1
Order the records by inhibition, with each subsequent value no larger than the one before. Reply with the item labels sorted in the order that was asked for. C, A, B, D
(C: 86%, A: 44%, B: 20.8%, D: 10.8%)

Origin of values: ChEMBL document CHEMBL4043144
